- Tested on: Aspergillus niger
- test_method_notes: Antifungal activity against Aspergillus niger ATCC 1004 assessed as growth inhibition at pH 7 incubated for 5 days in presence of 10% beef serum
- Type: functional
- setup_conditions: ATCC 1004, 120 h, read-out: MIC100
measurement_kind: MIC (µg/mL)

| molecule | MIC / µg/mL |
| --- | --- |
| CCOC(=O)/C=C/CI | 40 |
| CC1/C=C/C=C/C=C/C=C/C=C/C=C/C=C/C(OC2O[C@H](C)[C@@H](O)[C@H](N)[C@@H]2O)CC(O)C(C(=O)O)C(O)CC(=O)CC(O)CC(O)CC(O)CC(=O)CCCC(=O)CC(=O)OC1C(C)CC(C)C(O)CC(=O)c1ccc(N)cc1 (stereo not given in full) | 7 |
| CCCOC(=O)/C=C/CI | 60 |
| CCCCOC(=O)/C=C/CI | 70 |

a = CCOC(=O)/C=C/CBr
b = COC(=O)/C=C/CI
Which value of MIC is greater, the one for a or the one for b ? Write down the label of the entry you select.
a
(a: 80 µg/mL, b: 40 µg/mL)

---

- Tested on: Candida albicans
- test_method_notes: Antifungal activity against Candida albicans ATCC 10231 assessed as growth inhibition at pH 7 incubated for 20 hrs in absence of 10% beef serum
- Assay type: functional
- setup_conditions: ATCC 10231, 20 h, read-out: MIC100
measurement_kind: MIC (µg/mL)

Sample answers from the record:
| smiles_entry | MIC [µg/mL] |
| --- | --- |
| CCCOC(=O)/C=C/CBr | 30 |
| CCCCCOC(=O)/C=C/CBr | 30 |

A = CCCCCCOC(=O)/C=C/CI
B = CCOC(=O)/C=C/CI
C = CCCCCCOC(=O)/C=C/CBr
Parameters: sort_field (MIC), sort_dir (desc). In your reply, arrange the labels in the requested order.
A, C, B
(A: 30 µg/mL, C: 20 µg/mL, B: 10 µg/mL)

---

- System: Candida albicans
- test_method_notes: Antifungal activity against Candida albicans ATCC 10231 assessed as growth inhibition at pH 7 incubated for 20 hrs in absence of 10% beef serum
- Type: functional
- setup_conditions: ATCC 10231, 20 h, read-out: MIC100
measurement_kind: MIC (µg/mL)

// solved cases for MIC follow
| smiles_entry | scale_unit | MIC |
| --- | --- | --- |
| CCCCCOC(=O)/C=C/CI | µg/mL | 12 |
| CCCOC(=O)/C=C/CI | µg/mL | 12 |
| CCOC(=O)/C=C/CBr | µg/mL | 30 |
| CCCCOC(=O)/C=C/CBr | µg/mL | 30 |
| CCCCOC(=O)/C=C/CI | µg/mL | 12 |

I = COC(=O)/C=C/CI
II = COC(=O)/C=C/CBr
Just curious, which one has the larger MIC reading, I or II ? # respond with the chosen item's label
II

---

- Tested on: Trichophyton mentagrophytes
- test_method_notes: Antifungal activity against Trichophyton mentagrophytes ATCC 9129 assessed as growth inhibition at pH 7 incubated for 5 days in absence of 10% beef serum
- Type: functional
- setup_conditions: ATCC 9129, 120 h, read-out: MIC100
measurement_kind: MIC (µg/mL)

| compound | MIC, µg/mL |
| --- | --- |
| COC(=O)/C=C/CBr | 5 |
| CC1/C=C/C=C/C=C/C=C/C=C/C=C/C=C/C(OC2O[C@H](C)[C@@H](O)[C@H](N)[C@@H]2O)CC(O)C(C(=O)O)C(O)CC(=O)CC(O)CC(O)CC(O)CC(=O)CCCC(=O)CC(=O)OC1C(C)CC(C)C(O)CC(=O)c1ccc(N)cc1 (some centres undefined) | 3 |
| CCCOC(=O)/C=C/CI | 2 |
| CCOC(=O)/C=C/CBr | 2 |
| CCCCCOC(=O)/C=C/CI | 2 |

I = COC(=O)/C=C/CI
II = COC(=O)/C=C/CSC
III = CCCCCCOC(=O)/C=C/CI
List items by MIC in falling order. Answer by writing out the labels in the requested order.
II, III, I
(II: 70 µg/mL, III: 3 µg/mL, I: 2 µg/mL)
